Origin of values: patent US20250242064A1

measurement-description: in vivo
Parameters: species or system mice
test-context: male, NOD.Cg-Rag1tm1Mom Il2rgtm1Wjl/SzJ (NRG), mouse, iv, total radioactivity, Ratio Tumor-to-Kidney
Where a SMILES comes first, the peptide text is derived from it. Bridges are numbered along the chain shown (N, C = ends). [ ]: non-standard residue; d: D form. The star is where a group is joined. X6 = COc1ccc(CCCC(=O)NCCCC[C@H](NC(=O)[C@H](CS(=O)(=O)O)NC(=O)CN2CCN(CC(=O)O)CCN(CC(=O)O)CCN(CC(=O)O)CC2)C(=O)*)cc1; 2Nal = N[C@@H](Cc1ccc2ccccc2c1)C(=O)O; Lys(iPr) = CC(C)NCCCC[C@H](N)C(=O)O
metric-name: tissue to tissue ratio at 1 h
Respond numerically, and do not add a unit to the figure.

Query string: Entry COc1ccc(CCCC(=O)NCCCC[C@H](NC(=O)[C@H](CS(=O)(=O)O)NC(=O)CN2CCN(CC(=O)O)CCN(CC(=O)O)CCN(CC(=O)O)CC2)C(=O)NCCCC[C@@H]2NC(=O)CC[C@H](C(=O)N[C@@H](CCCCNC(C)C)C(N)=O)NC(=O)[C@@H](C)NC(=O)[C@H](Cc3ccc4ccccc4c3)NC(=O)[C@@H](CCCNC(=N)N)NC(=O)[C@H](CCCCNC(C)C)NC(=O)[C@H](Cc3ccc(O)cc3)NC2=O)cc1 [[^68Ga]Ga-BL34L7, metal not drawn] (K(X6)Y[Lys(iPr)][dR][2Nal][dA][dE][Lys(iPr)]-NH2; lactam N-7) needs its tissue to tissue ratio at 1 h filled in; supply it.
Result string: 4.51

###

Consider the following compounds; for each one, report its tissue to tissue ratio at 3 h.
measurement-description: in vivo
Design: species or system mice
test-context: male, NOD.Cg-Rag1tm1Mom Il2rgtm1Wjl/SzJ (NRG), mouse, iv, total radioactivity, Ratio Tumor-to-Bone
Where a SMILES comes first, the peptide text is derived from it. Bridges are numbered along the chain shown (N, C = ends). [ ]: non-standard residue; d: D form. The star is where a group is joined. X4 = O=C(O)CN1CCN(CC(=O)O)CCN(CC(=O)N[C@@H](CS(=O)(=O)O)C(=O)NCCCC[C@H](NC(=O)CNC(=O)CCCc2ccc(Cl)cc2)C(=O)*)CCN(CC(=O)O)CC1; X5 = O=C(O)CN1CCN(CC(=O)O)CCN(CC(=O)N[C@@H](CS(=O)(=O)O)C(=O)N[C@@H](CCCCNC(=O)CCCc2ccc(Cl)cc2)C(=O)*)CCN(CC(=O)O)CC1; X1 = O=C(O)CN1CCN(CC(=O)O)CCN(CC(=O)N[C@@H](CS(=O)(=O)O)C(=O)N[C@@H](CCCCNC(=O)CCCc2ccc(I)cc2)C(=O)*)CCN(CC(=O)O)CC1; 2Nal = N[C@@H](Cc1ccc2ccccc2c1)C(=O)O; Lys(iPr) = CC(C)NCCCC[C@H](N)C(=O)O
Respond numerically, and do not add a unit to the figure.

Query string: Entry CC(C)NCCCC[C@H](NC(=O)[C@H]1CCC(=O)N[C@@H](CCCCNC(=O)[C@H](CCCCNC(=O)CCCc2ccc(Cl)cc2)NC(=O)[C@H](CS(=O)(=O)O)NC(=O)CN2CCN(CC(=O)O)CCN(CC(=O)O)CCN(CC(=O)O)CC2)C(=O)N[C@@H](Cc2ccc(O)cc2)C(=O)N[C@@H](CCCCNC(C)C)C(=O)N[C@H](CCCNC(=N)N)C(=O)N[C@@H](Cc2ccc3ccccc3c2)C(=O)N[C@H](C)C(=O)N1)C(N)=O [[^68Ga]Ga-BL34L16, metal not drawn] (K(X5)Y[Lys(iPr)][dR][2Nal][dA][dE][Lys(iPr)]-NH2; lactam N-7) needs its tissue to tissue ratio at 3 h filled in; supply it.
Result string: 19.3

Query string: Entry CC(C)NCCCC[C@H](NC(=O)[C@H]1CCC(=O)N[C@@H](CCCCNC(=O)[C@H](CCCCNC(=O)[C@H](CS(=O)(=O)O)NC(=O)CN2CCN(CC(=O)O)CCN(CC(=O)O)CCN(CC(=O)O)CC2)NC(=O)CNC(=O)CCCc2ccc(Cl)cc2)C(=O)N[C@@H](Cc2ccc(O)cc2)C(=O)N[C@@H](CCCCNC(C)C)C(=O)N[C@H](CCCNC(=N)N)C(=O)N[C@@H](Cc2ccc3ccccc3c2)C(=O)N[C@H](C)C(=O)N1)C(N)=O [[68Ga]Ga-BL34T1, metal not drawn] (K(X4)Y[Lys(iPr)][dR][2Nal][dA][dE][Lys(iPr)]-NH2; lactam N-7) needs its tissue to tissue ratio at 3 h filled in; supply it.
Result string: 21.9

Query string: Entry CC(C)NCCCC[C@H](NC(=O)[C@H]1CCC(=O)N[C@@H](CCCCNC(=O)[C@H](CCCCNC(=O)CCCc2ccc(I)cc2)NC(=O)[C@H](CS(=O)(=O)O)NC(=O)CN2CCN(CC(=O)O)CCN(CC(=O)O)CCN(CC(=O)O)CC2)C(=O)N[C@@H](Cc2ccc(O)cc2)C(=O)N[C@@H](CCCCNC(C)C)C(=O)N[C@H](CCCNC(=N)N)C(=O)N[C@@H](Cc2ccc3ccccc3c2)C(=O)N[C@H](C)C(=O)N1)C(N)=O [[^68Ga]Ga-BL34L11, metal not drawn] (K(X1)Y[Lys(iPr)][dR][2Nal][dA][dE][Lys(iPr)]-NH2; lactam N-7) needs its tissue to tissue ratio at 3 h filled in; supply it.
Result string: 10.3
